# Test system: Escherichia coli TOP10
# method_notes: shrunken log2 fold change of peptide-encoding DNA abundance (4.5 h post-induction vs induction); higher = less antimicrobial activity (less host growth inhibition)
# assay_setup: time post-induction: 4.5 h; library: site-saturation at positions 5, 18, 19, 20
Consider the following sequences; for each one, report its shrunken log2 fold change.

Reference set (5 entries):
RRIRMRPPRLPRPRPRPAKCPRP = 0.147
RRIRSRPPRLPRPRPRPELYPRP = -0.00809
RRIRWRPPRLPRPRPRPEHQPRP = 0.263
RRIRMRPPRLPRPRPRPKCQPRP = 1.33
RRIRKRPPRLPRPRPRPSWLPRP = 0.303

Give me shrunken log2 fold change for each of these sequences, listed below.
1. RRIRRRPPRLPRPRPRPWGQPRP
2. RRIRCRPPRLPRPRPRPITPPRP
3. RRIRDRPPRLPRPRPRPGYFPRP
4. RRIRTRPPRLPRPRPRPPYTPRP
5. RRIRWRPPRLPRPRPRPFIMPRP
6. RRIRVRPPRLPRPRPRPPGKPRP
7. RRIRIRPPRLPRPRPRPGYYPRP

1. 0.0104
2. -0.219
3. -1.25
4. -0.397
5. -0.0374
6. 0.0564
7. -0.708

====

Consider the following sequences; for each one, report its shrunken log2 fold change.
# Test system: Escherichia coli TOP10;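 note: peptides expressed intracellularly from a pBAD plasmid library in pooled LB shake-flask culture, induced with 0.3% L-arabinose, DNA abundance read by NGS, three biological replicates, DESeq2 with apeglm shrinkage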
# method_notes: shrunken log2 fold change of peptide-encoding DNA abundance (4.5 h post-induction vs induction); higher = less antimicrobial activity (less host growth inhibition)
# assay_setup: time post-induction: 4.5 h; library: site-saturation at positions 5, 18, 19, 20
Numbers only.

Reference set (10 entries):
RRIRLRPPRLPRPRPRPNWAPRP = -0.00149
RRIRVRPPRLPRPRPRPMTGPRP = -0.0967
RRIRMRPPRLPRPRPRPAMWPRP = 0.511
RRIRVRPPRLPRPRPRPACLPRP = -0.444
RRIRFRPPRLPRPRPRPCNEPRP = -0.0116
RRIRCRPPRLPRPRPRPKIGPRP = 0.0398
RRIRPRPPRLPRPRPRPKRRPRP = -0.093
RRIRHRPPRLPRPRPRPSFMPRP = -0.699
RRIRKRPPRLPRPRPRPASDPRP = 0.981
RRIRVRPPRLPRPRPRPVSDPRP = -0.0859

Give me shrunken log2 fold change for each of these sequences, listed below.
1. RRIRFRPPRLPRPRPRPTWPPRP
2. RRIRWRPPRLPRPRPRPYDRPRP
3. RRIRYRPPRLPRPRPRPPNWPRP
4. RRIRNRPPRLPRPRPRPAVFPRP
5. RRIRQRPPRLPRPRPRPRYPPRP
6. RRIRTRPPRLPRPRPRPCHSPRP
7. RRIRFRPPRLPRPRPRPWITPRP
8. RRIRHRPPRLPRPRPRPYQVPRP

0.422
0.0155
-0.00249
0.0636
-0.0427
-0.039
-0.192
-0.0252

Give me shrunken log2 fold change for each of these sequences, listed below.
1. RRIRFRPPRLPRPRPRPVQHPRP
2. RRIRGRPPRLPRPRPRPIEVPRP
3. RRIRPRPPRLPRPRPRPHKLPRP
4. RRIRIRPPRLPRPRPRPHYGPRP

1: -0.044; 2: 0.289; 3: -0.109; 4: -0.223
